Data origin: patent US7994172B2

# SYSTEM: human Akt1 kinase (kinase domain residues R144-A480, activated with PDK1) (Homo sapiens, UniProt P31749)
# Sequence (P31749 144-480): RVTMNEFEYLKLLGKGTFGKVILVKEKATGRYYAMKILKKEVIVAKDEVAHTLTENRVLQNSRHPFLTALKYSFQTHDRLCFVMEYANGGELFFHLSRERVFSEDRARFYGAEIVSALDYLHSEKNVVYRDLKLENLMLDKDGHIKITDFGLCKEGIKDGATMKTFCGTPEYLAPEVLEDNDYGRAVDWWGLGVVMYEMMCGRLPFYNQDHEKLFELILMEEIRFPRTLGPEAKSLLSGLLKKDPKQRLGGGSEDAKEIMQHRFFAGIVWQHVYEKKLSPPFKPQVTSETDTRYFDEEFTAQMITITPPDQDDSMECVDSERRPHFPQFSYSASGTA
# ASSAY_SUMMARY: Akt1 kinase assay, Luciferase-Coupled Chemiluminescent Kinase assay (LCCA)
# REPORTED_CONDITIONS: 1 μM ATP, 1.3 nM Akt1; read-out: Akt-1 inhibition IC50
Please provide measured IC50 for the entries that follow.

Examples from the recorded data:
Clc1ccc(-c2ccc(CN3CCN(c4ncnc5[nH]nc(Br)c45)CC3)o2)cc1 :: > 2000 nM
Fc1cc(C(F)(F)F)ccc1CN1CCN(c2ncnc3[nH]nc(Br)c23)CC1 :: 50 to 500 nM
CCN(CC)CCCN(c1ccc(Cl)cc1)C1CCN(c2ncnc3[nH]nc(Br)c23)CC1 :: < 50 nM
Brc1n[nH]c2ncnc(N3CCN(Cc4ccc(-c5ccccc5)cc4)CC3)c12 :: > 2000 nM
Fc1cc(CN2CCN(c3ncnc4[nH]nc(Br)c34)CC2)ccc1Cl :: 50 to 500 nM
Brc1n[nH]c2ncnc(N3CCN(Cc4ccc5c(c4)OCO5)CC3)c12 :: 500 to 2000 nM
COc1cc(OC)nc(CN2CCN(c3ncnc4[nH]nc(Br)c34)CC2)n1 :: > 2000 nM
Brc1ccc(CN2CCN(c3ncnc4[nH]nc(Br)c34)CC2)cc1 :: 50 to 500 nM

Now, please, on to the next molecule.
Consider `O=C1CN(c2ncnc3[nH]nc(Br)c23)CCN1Cc1ccc(Cl)cc1` . Its measured IC50 is 50 to 500 nM

###

# SYSTEM: human Akt1 kinase (kinase domain residues R144-A480, activated with PDK1) (Homo sapiens, UniProt P31749)
# ASSAY_SUMMARY: Akt1 kinase assay, Luciferase-Coupled Chemiluminescent Kinase assay (LCCA)
# REPORTED_CONDITIONS: 1 μM ATP, 1.3 nM Akt1; read-out: Akt-1 inhibition IC50
pIC50: −log10 of the molar value.
Provide the reported pIC50 of each item.

Recorded results for 5 molecules are shown here.
Clc1ccc(CN2CCN(c3ncnc4[nH]nc(Br)c34)CC2)c(Cl)c1 :: 5.70 to 6.30
N#Cc1cccc(CN2CCN(c3ncnc4[nH]nc(Br)c34)CC2)c1 :: < 5.70
CCN(CC)CCC(=O)NC(c1ccc(Cl)cc1)C1CCN(c2ncnc3[nH]nc(Br)c23)CC1 (stereo not drawn) :: > 7.30
CN(C)CCOC(c1ccc(Cl)cc1)C1CCN(c2ncnc3[nH]nc(Br)c23)CC1 (stereo not drawn) :: > 7.30
OC(c1ccc(Cl)cc1)C1CCN(c2ncnc3[nH]nc(Br)c23)CC1 (stereo not drawn) :: > 7.30

Now for a further molecule.
Reported pIC50 ( `CN(C)CCO[C@H](c1ccc(Cl)cc1)C1CCN(c2ncnc3[nH]nc(Br)c23)CC1` ) = > 7.30

###

# SYSTEM: human Akt1 kinase (kinase domain residues R144-A480, activated with PDK1) (Homo sapiens)
# ASSAY_SUMMARY: Akt1 kinase assay, Luciferase-Coupled Chemiluminescent Kinase assay (LCCA)
# REPORTED_CONDITIONS: 1 μM ATP, 1.3 nM Akt1; read-out: Akt-1 inhibition IC50
I'd appreciate it if you could supply IC50 values for the items below.

Worked set:
CN(C)CCO[C@@H](c1ccc(Cl)cc1)C1CCN(c2ncnc3[nH]nc(Br)c23)CC1 [Entry 86] :: < 50 nM
CCC(C)N1CCN(c2ncnc3[nH]nc(Br)c23)CC1 (stereo not drawn) [Entry 72] :: > 2000 nM
COC(=O)c1ccc(CN2CCN(c3ncnc4[nH]nc(Br)c34)CC2)cc1 [Entry 42] :: > 2000 nM
O=C(c1ccco1)N1CCN(c2ncnc3[nH]nc(Br)c23)CC1 [Entry 66] :: > 2000 nM

Provide each entry's IC50 from the list below.
1. O=C(c1ccc2cc[nH]c2c1)N1CCN(c2ncnc3[nH]nc(Br)c23)CC1 [Entry 67]
2. O=C(Nc1cccc(C(F)(F)F)c1)N1CCN(c2ncnc3[nH]nc(Br)c23)CC1 [Entry 33]
3. CN(Cc1ccccn1)C(c1ccc(F)cc1)C1CCN(c2ncnc3[nH]nc(Br)c23)CC1 (stereo not drawn) [Entry 97]
4. C[C@H]1CN(c2ncnc3[nH]nc(Br)c23)CCN1Cc1ccc(Cl)cc1 [Entry 31]
5. Clc1c2ccccc2c(CN2CCN(c3ncnc4[nH]nc(Br)c34)CC2)c2ccccc12 [Entry 71]

A.
> 2000 nM
> 2000 nM
500 to 2000 nM
500 to 2000 nM
> 2000 nM
